Target: T1, integrin β3(P685-F727) transmembrane peptide with C687S (human, UniProt P05106 711-753, C687S)
T1 chain (looked up): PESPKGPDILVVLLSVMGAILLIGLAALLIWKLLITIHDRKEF
Assay: ITC
readout: KXY

binder | KXY
ALEERAIPIWVVLVGVLGGLLLLTILVLAMWKVGFFKRNRP (peptide, UniProt P08514 989-1029, looked up) [integrin αIIb(A958-P998) transmembrane peptide with W968V] | 13200

[1] ALEERAIPIWVVLVSVLGGLLLLTILVLAMWKVGFFKRNRP (peptide, UniProt P08514 989-1029, looked up) [integrin αIIb(A958-P998) transmembrane peptide with W968V/G972S]
[2] ALEERAIPIWAVLVGVLGGLLLLTILVLAMWKVGFFKRNRP (peptide, UniProt P08514 989-1029, looked up) [integrin αIIb(A958-P998) transmembrane peptide with W968A]
-- ask Of 1 versus 2 , which is the one with smaller reported KXY? Give the label under which the chosen entry appears.
-- reply 1
(1: 1300, 2: 14000)
